The values you see were collected from patent US20230339919A1.

# Assayed target: GPR40 (Homo sapiens)
# Construct: expressed in transfected cells; host or cells: CHO-K1
# Sequence (O14842 whole entry): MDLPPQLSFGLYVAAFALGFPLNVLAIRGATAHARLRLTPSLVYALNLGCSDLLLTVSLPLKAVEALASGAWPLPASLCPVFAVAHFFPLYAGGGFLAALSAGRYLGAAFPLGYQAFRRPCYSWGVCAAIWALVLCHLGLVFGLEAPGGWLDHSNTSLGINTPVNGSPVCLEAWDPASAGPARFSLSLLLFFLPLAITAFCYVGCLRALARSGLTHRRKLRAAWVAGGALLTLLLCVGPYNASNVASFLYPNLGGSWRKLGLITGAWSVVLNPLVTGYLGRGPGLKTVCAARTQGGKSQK
# Procedure details: GPR40 agonist activity, FLIPR calcium assay in CHO-K1/GPR40 cells
# Type: cell-based
# Run parameters: GPR40 agonist activity range (EC50), CHO-K1/GPR40 cells; read-out: GPR40 activity
Measurement label: EC50

Example cases with answers are listed next.
Ask | I would be grateful if you could share the reported EC50 for O=C(O)CC1COc2c1cc(Br)c(OCc1cccc3c1OC(F)(F)O3)c2Br (stereo not drawn) [IIb-27] .
Reply | > 100 nM

Ask | Ok, now CC(C)S(=O)(=O)Nc1cc(COc2ccc3c(c2)OC[C@H]3CC(=O)O)c2c(c1)OCO2 [IIb-51]
Reply | > 100 nM

Ask | Ok, now O=C(O)C[C@@H]1COc2cc(OCc3cc(Cl)cc4c3OCO4)ccc21 [IIb-25]
Reply | < 10 nM

Ask | Ok, now O=C(O)CC1COc2cc(OCc3cc(Br)cc4c3OC(F)(F)O4)ccc21 (stereo not drawn) [IIb-21]
Reply | 10 to 100 nM

Ask | Ok, now O=C(O)C[C@@H]1COc2cc(OCc3cccc4c3OC(F)(F)O4)ccc21 [IIb-18]
Reply | < 10 nM

Ask | Ok, now CC#CC(CC(=O)O)c1ccc(OCc2cc(NC(=O)OC(C)(C)C)cc3c2OC(F)(F)O3)cc1 (stereo not drawn) [IIb-64]
Reply | 10 to 100 nM

Ask | Ok, now O=C(O)CC1COc2cc(OCc3c(F)ccc4c3OCO4)ccc21 (stereo not drawn) [IIb-13]
Reply | > 100 nM

Ask | Ok, now O=C(O)CC1(c2ccc(OCc3cc(F)cc4c3OCO4)cc2)OCCO1 [IIb-37]
Reply | > 100 nM

Further cases:
Ask | I would be grateful if you could share the reported EC50 for O=C(O)C[C@@H]1COc2cc(OCc3cc(NC(=O)OC4CCCC4)cc4c3OCO4)ccc21 [IIb-48] .
Reply | 10 to 100 nM

====

Documented EC50 across a set of molecules
# Assayed target: GPR40 (Homo sapiens)
# Construct: expressed in transfected cells; host or cells: CHO-K1
# Procedure details: GPR40 agonist activity, FLIPR calcium assay in CHO-K1/GPR40 cells
# Type: cell-based
# Run parameters: GPR40 agonist activity range (EC50), CHO-K1/GPR40 cells; read-out: GPR40 activity

Example cases with answers are listed next.
Ask | I would be grateful if you could share the reported EC50 for `CC(C)(CC(=O)O)c1ccc(OCc2cc(F)cc3c2OCO3)cc1` .
Reply | > 100 nM

Ask | Ok, now O=C(O)CC1COc2cc(OCc3cccc4c3OC(F)(F)O4)c(Br)cc21 (stereo not drawn)
Reply | > 100 nM

Ask | Ok, now CC(C)(C)OC(=O)Nc1cc(COc2ccc3c(c2)OCC3C(F)C(=O)O)c2c(c1)OCO2 (stereo not drawn)
Reply | 10 to 100 nM

Ask | Ok, now O=C(O)CC1COc2cc(OCc3cc(Cl)cc4c3OCO4)ccc21 (stereo not drawn)
Reply | 10 to 100 nM

Ask | Ok, now O=C(O)C(F)(F)C1COc2cc(OCc3cccc4c3OC(F)(F)O4)ccc21 (stereo not drawn)
Reply | > 100 nM

Further cases:
Ask | I would be grateful if you could share the reported EC50 for O=C(O)CC1COc2cc(OCc3c(Br)ccc4c3OCO4)ccc21 (stereo not drawn) .
Reply | > 100 nM

Ask | Ok, now O=C(O)CC1COc2cc(OCc3cc(C(F)(F)F)cc4c3OCO4)ccc21 (stereo not drawn)
Reply | 10 to 100 nM

Ask | Ok, now O=C(O)CC1COc2cc(OCc3cc(Br)cc4c3OCO4)ccc21 (stereo not drawn)
Reply | > 100 nM

Ask | Ok, now `CC(C)(C)OC(=O)Nc1cc(COc2ccc3c(c2)OC[C@H]3CC(=O)O)c2c(c1)OCO2`
Reply | < 10 nM
